Test: Stat Signaling Pathway (AID 446);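 note: ME-180 cervical cancer cells given 40 pM IL-6 alongside compound; SIE-controlled beta-lactamase reporter measured as 460/530 nm FRET emission ratio; % is set by controls: 0 for no effect and ±100 for the full control effect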
Settings: ME-180 (cervical carcinoma) SIE beta-lactamase reporter, IL-6 stimulated, 5 h; at 7.69 µM (top of the series) unless noted
Records with an inconclusive call do not appear. Active and inactive are the calls of the source. Calls come from the whole dose curve; as a rule, active = well fitted curve in either direction with a large enough effect (not every such curve was filed as active); inconclusive = small, poorly fitted or top-dose-only effect, or another doubt; inactive = flat fitted curve, though single readings scatter.
Pick one and only one: true for active, false for inactive

Example entries and their recorded answers appear below.
>>> print(df.to_string())
                          structureassmiles  assignedclass
0  C[C@]12CN(CC[N+](C)(C)C)C[C@]1(C)[C@@H]1CC[C@@H]2O1          false
1                 CCN(CC)CCn1ncc2c(N)ncnc21          false
2  CC[C@@H]1CN2CCc3cc(OC)c(OC)cc3[C@H]2C[C@@H]1C[C@@H]1NCCc2cc(O)c(OC)cc21           true
3  CC1=NN(c2ccc(S(=O)(=O)O)cc2C)C(=[OH+])[C@H]1N=Nc1cc(S(=O)(=O)O)ccc1C(=O)O.O.[Cr]          false

Hey, what did the test say about CC(=O)O[C@H]1CC[C@H]2[C@@H]3CCC4=C[C@@H](C5SCCS5)[C@H](OC(C)=O)C[C@]4(C)[C@H]3CC[C@@]12C ?
false

Please do the same for N[C@H](Cc1c[nH]c2ccccc12)P(=O)(O)O as well.
false

Please do the same for CCNC(=O)[C@@H]1O[C@@H](n2cnc3c(N)ncnc32)[C@@H](O)[C@H]1O as well.
false

Please do the same for Cc1c([C@@H](C)[C@H]2NC[C@H](C)C[C@@H]2O)ccc2c1C[C@@H]1[C@H]2CC=C2C[C@@H](O)CC[C@@]21C as well.
false

Please do the same for CCCOC(=O)[C@@H]1[C@@H](C(=O)O)[C@H]2CC[C@@H]1O2 as well.
false

###

Assay: qHTS assay for small molecule antagonists of the retinoid-related orphan receptor gamma (ROR-gamma) signaling pathway - cell viability counter screen (AID 720652);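 note: CHO reporter cells with doxycycline-induced ROR-gamma expression; compound exposure lasted 16 hr before ATP read; % is set by controls: 0 for no effect and ±100 for the full control effect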
Settings: RORgamma reporter cell line viability counter screen; series mostly up to 92.2 µM
Inconclusive results are not listed. Active and inactive are the calls of the source. Calls come from the whole dose curve; as a rule, active = well fitted cell-killing curve with a large enough effect in the repeat runs; inconclusive = weak or mixed curves, or effect the other way; inactive = flat fitted curve, though single readings scatter.
Pick one and only one: active, inactive

>>> df
                  molecule  assignedclass
0  Nc1ccc(Oc2ccc(N)cc2)cc1       inactive

Hey, what did the test say about CCOC(=O)C1OC1(C)c1ccccc1 (configuration not stated) ?
inactive

Please do the same for C=C(C)CCl as well.
inactive

Please do the same for ClCc1ccccn1 as well.
inactive

Please do the same for CN(C)C(=O)Cl as well.
inactive

Please do the same for O=Cc1ccc(Cl)cc1Cl as well.
inactive

Please do the same for Oc1cc(Cl)ccc1Cl as well.
inactive

###

The following compounds are shown together with reported caspase-3 activation values.
Test: Cellular Toxicity (caspase-3) Hek293 (AID 664);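 note: cells exposed to compound for 16 h at 37 °C before readout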
Settings: HEK293 caspase-3 activation, DMSO = 0%, 100 µM tamoxifen = 100%; at 92.2 µM (top of the series)
Records with an inconclusive call do not appear.
Write the answer as a number in %, unit excluded.

The cases that follow already have their caspase-3 activation on record.
                                   compound          propertyname  resultnumber
0                   CC(C)(C)OOC(=O)c1ccccc1  caspase-3 activation         -1.73
1                               O=S(=O)(O)F  caspase-3 activation          4.29
2                             CCOS(C)(=O)=O  caspase-3 activation         -3.11
3                         CCSC(=O)N1CCCCCC1  caspase-3 activation          2.55
4  CC(C)(C)C(O)(CCc1ccc(Cl)cc1)Cn1cncn1 (stereo not drawn)  caspase-3 activation           3.2

What value of caspase-3 activation has been reported for the following compound? c1ccoc1
-1.2

Please do the same for COc1cc(-c2ccc(N)c(OC)c2)ccc1N as well.
-1.4

###

Target: Mitogen-activated protein kinase 10 (Mus musculus) (UniProt Q61831)
Assay: JNK3 AlphaScreen Assay (AID 530);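 note: kinase came from lysate of stimulated human HepG2 cells; signal reports phosphorylation of biotinylated GST-cJun 1-79 at Ser73 with 10 µM ATP; % is set by controls: 0 for no effect and ±100 for the full control effect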
Details: JNK3 lysate, c-Jun phosphorylation; series mostly up to 57.1 µM
Results filed as inconclusive are left out. Active and inactive are the calls of the source. Calls follow the shape of the dose curve; as a rule, active = well fitted curve in either direction with a large enough effect (not every such curve was filed as active); inconclusive = small, poorly fitted or top-dose-only effect, or another doubt; inactive = flat fitted curve, though single readings scatter.
propertyName: activity change, negative = inhibition

The cases that follow already have their activity change, negative = inhibition on record.
>>> print(df.to_string())
                                   compound                              systemtested                         result
0  CCCCCCCCCCCOC(=O)c1ccccc1C(=O)OCCCCCCCCCCC  Mitogen-activated protein kinase 10 (Mus musculus) (UniProt Q61831)                       inactive
1                              BrCCc1ccccc1  Mitogen-activated protein kinase 10 (Mus musculus) (UniProt Q61831)                       inactive
2   CC(=O)[O-].CC(=O)[O-].CC(=O)[O-].[Cr+3]  Mitogen-activated protein kinase 10 (Mus musculus) (UniProt Q61831)                       inactive
3               CS(=O)(=O)O[C@H]1CN2CCC1CC2  Mitogen-activated protein kinase 10 (Mus musculus) (UniProt Q61831)  2.61% [at 11.4 µM] (inactive)
4   c1ccc2c(c1)Sc1ccccc1N2C[C@H]1CN2CCC1CC2  Mitogen-activated protein kinase 10 (Mus musculus) (UniProt Q61831)  3.89% [at 11.4 µM] (inactive)

What value of activity change, negative = inhibition has been reported for the following compound? COc1cc2c(cc1OC)[C@@]13CCN4CC5=CCO[C@H](CC(=O)O)[C@@H]([C@H]1N2)[C@H]5C[C@H]43
4.42% [at 11.4 µM] (inactive)

Please do the same for C[N+]1([O-])[C@H]2CC[C@H]1CC(OC(=O)[C@@H](CO)c1ccccc1)C2 (stereo not given in full) as well.
1.19% [at 11.4 µM] (inactive)

Please do the same for C[N+]1(C)C2CC[C@H]1CC(OC(=O)[C@@H](CO)c1ccccc1)C2 (stereo not given in full) as well.
2.63% [at 11.4 µM] (inactive)

Please do the same for O=C(O)[C@@H]1[C@H](C(=O)O)[C@]2(Cl)C(Cl)=C(Cl)[C@@]1(Cl)C2(Cl)Cl as well.
0.126% [at 11.4 µM] (inactive)

###

Assay: qHTS assay for small molecule disruptors of the mitochondrial membrane potential - 5 hr assay (AID 651755); note: % is set by controls: 0 for no effect and ±100 for the full control effect; nearly all actives have a fitted effect of over 40% in size
Settings: JC-1-type ratio dye; series mostly up to 92.2 µM
From the text: National Center for Advancing Translational Sciences [NCATS] NIH Chemical Genomics Center [NCGC] National Institutes of Environmental Health Sciences [NIEHS] National Toxicology Program [NTP] Mitochondrial membrane potential (MMP), one of the parameters for mitochondrial function, is generated by mitochondrial electron transport chain that creates an electrochemical gradient by a series of redox reactions. […] The dye accumulates in the mitochondria of healthy cells as aggregates, with red fluorescence. […]
Results filed as inconclusive are left out. Calls of active or inactive are those of the source. Calls follow the shape of the full dose curve.
propertyName: outcome

In [3]: df
Out[3]:
               structureassmiles  propertyname    result
0  Nc1ccc(Cc2ccc(N)c(Cl)c2)cc1Cl       outcome  inactive
1                         OCCCCO       outcome  inactive
2                        CC(C)Br       outcome  inactive

###

Test: NFAT Signaling Pathway (AID 444);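 note: carbachol stimulus at about its EC50 of 1 µM final; % is set by controls: 0 for no effect and ±100 for the full control effect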
Details: Jurkat NFAT-bla M1, carbachol, beta-lactamase ratio, 5 h; at 7.69 µM (top of the series) unless noted
Results filed as inconclusive are left out. Calls of active or inactive are those of the source. Calls follow the shape of the dose curve; as a rule, active = well fitted curve in either direction with a large enough effect (not every such curve was filed as active); inconclusive = small, poorly fitted or top-dose-only effect, or another doubt; inactive = flat fitted curve, though single readings scatter.
Pick one and only one: active, inactive

Example entries and their recorded answers appear below.
compound	assignedClass
C[Se]C[C@@H](N)C(=O)O	inactive
N=C(N)SCc1ccc(Cl)c2ccccc12 (tested in a mixture with another compound)	inactive
C[C@@H]1O[C@H](OC2[C@@H](O)[C@H](O)C(O)[C@H](O)[C@H]2O)[C@@H](N)C[C@@H]1N=C(N)C(=O)O (stereo partly drawn)	inactive

Hey, what did the test say about C[C@@]12CC[C@H]3[C@@H](CC[C@H]4C[C@@H](O)CC[C@]43C)[C@H]1CC[C@@H]2C(=O)C[C@H](O)C(F)(F)F ?
inactive

Please do the same for CCN(CC)CCn1ncc2c(N)ncnc21 as well.
inactive

Please do the same for C[C@@H]1O[C@@H](O[C@H]2C[C@@H](O)[C@@]3(CO)[C@H]4[C@H](O)C[C@]5(C)[C@@H](C6=CC(=O)OC6)CC[C@]5(O)[C@H]4CC[C@@]3(O)C2)[C@@H](O)[C@H](O)[C@H]1O as well.
active

Please do the same for CC1=C2C(=O)[C@@H]3[C@@H](CC=C4C[C@@H](O)CC[C@@]43C)[C@H]2CC[C@@]12O[C@H]1C[C@H](C)CN[C@H]1[C@@H]2C as well.
inactive

Please do the same for O=C1N[C@@]2(CN3CCC2CC3)C(=O)N1CN(Cc1ccccc1)c1ccccc1 as well.
inactive
